measurement_notes: Cytotoxicity against human HepG2 cells assessed as cell metabolic activity at 10 uM incubated for 48 hrs by resazurin assay relative to control
Type: ADME, cell-based
run_parameters: read-out: Activity
Each item that follows carries a reported viability at 48 h, 10 µM.
The reply should be a number in %, with the unit left off.

CS(=O)(=O)[O-].O=C(Cc1ccc(O)c(O)c1)NCCCCCC[P+](c1ccccc1)(c1ccccc1)c1ccccc1
103
CS(=O)(=O)[O-].O=C(CCc1cc(O)c(O)c(O)c1)NCCCCCCCCCC[P+](c1ccccc1)(c1ccccc1)c1ccccc1
106
CS(=O)(=O)[O-].O=C(Cc1ccc(O)c(O)c1)NCCCCCCCCCC[P+](c1ccccc1)(c1ccccc1)c1ccccc1
85.2
CS(=O)(=O)[O-].O=C(Cc1cc(O)c(O)c(O)c1)NCCCCCCCCCC[P+](c1ccccc1)(c1ccccc1)c1ccccc1
102
O=C(NCCCCCCCCCC[P+](c1ccccc1)(c1ccccc1)c1ccccc1)c1ccc(O)c(O)c1.[Br-]
44.6

Exam item: For the molecule shown here, O=C(NCCCCCC[P+](c1ccccc1)(c1ccccc1)c1ccccc1)c1cc(O)c(O)c(O)c1.[Br-] , give the reported viability at 48 h, 10 µM.
Marked response: 89.4

Exam item: Try this molecule too: CS(=O)(=O)[O-].O=C(/C=C/c1ccc(O)c(O)c1)NCCCCCC[P+](c1ccccc1)(c1ccccc1)c1ccccc1
Marked response: 111

###

measurement_notes: Cytotoxicity against human SH-SY5Y cells assessed as cell metabolic activity at 10 uM incubated for 24 hrs by MTT assay relative to control
Assay type: ADME, cell-based
run_parameters: read-out: Activity
quantity: viability at 24 h, 10 µM (%)
Number only, in %; omit the unit.

Example entries and their recorded answers appear below.
CS(=O)(=O)[O-].O=C(Cc1cc(O)c(O)c(O)c1)NCCCCCC[P+](c1ccccc1)(c1ccccc1)c1ccccc1
90.6
CS(=O)(=O)[O-].O=C(CCc1ccc(O)c(O)c1)NCCCCCCCCCC[P+](c1ccccc1)(c1ccccc1)c1ccccc1
96
CS(=O)(=O)[O-].O=C(/C=C/c1ccc(O)c(O)c1)NCCCCCC[P+](c1ccccc1)(c1ccccc1)c1ccccc1
103
CS(=O)(=O)[O-].O=C(/C=C/c1ccc(O)c(O)c1)NCCCCCCCCCC[P+](c1ccccc1)(c1ccccc1)c1ccccc1
104
CS(=O)(=O)[O-].O=C(CCc1cc(O)c(O)c(O)c1)NCCCCCC[P+](c1ccccc1)(c1ccccc1)c1ccccc1
95.9
CS(=O)(=O)[O-].O=C(Cc1ccc(O)c(O)c1)NCCCCCCCCCC[P+](c1ccccc1)(c1ccccc1)c1ccccc1
94.5
CS(=O)(=O)[O-].O=C(CCc1cc(O)c(O)c(O)c1)NCCCCCCCCCC[P+](c1ccccc1)(c1ccccc1)c1ccccc1
92.8

Now look at this one.
Exam item: What measured viability at 24 h, 10 µM goes with Cc1c(C)c2c(c(C)c1O)CCC(C)(C(=O)O)O2 (stereo not drawn) ?
Marked response: 3.62

###

measurement_notes: Cytotoxicity against human HepG2 cells assessed as cell metabolic activity at 50 uM incubated for 48 hrs by resazurin assay relative to control
Assay type: ADME, cell-based
run_parameters: read-out: Activity
Listing of recorded viability at 48 h, 50 µM by entry.
Note: unit % is implicit; provide only the numeric part.

Answered examples (10):
CS(=O)(=O)[O-].O=C(Cc1ccc(O)c(O)c1)NCCCCCCCCCC[P+](c1ccccc1)(c1ccccc1)c1ccccc1
10.7
CS(=O)(=O)[O-].O=C(CCc1cc(O)c(O)c(O)c1)NCCCCCC[P+](c1ccccc1)(c1ccccc1)c1ccccc1
117
CS(=O)(=O)[O-].O=C(CCc1ccc(O)c(O)c1)NCCCCCCCCCC[P+](c1ccccc1)(c1ccccc1)c1ccccc1
8.22
CS(=O)(=O)[O-].O=C(CCc1ccc(O)c(O)c1)NCCCCCC[P+](c1ccccc1)(c1ccccc1)c1ccccc1
99.3
O=C(NCCCCCCCCCC[P+](c1ccccc1)(c1ccccc1)c1ccccc1)c1ccc(O)c(O)c1.[Br-]
2.4
CS(=O)(=O)[O-].O=C(/C=C/c1ccc(O)c(O)c1)NCCCCCCCCCC[P+](c1ccccc1)(c1ccccc1)c1ccccc1
8.24
CS(=O)(=O)[O-].O=C(Cc1cc(O)c(O)c(O)c1)NCCCCCCCCCC[P+](c1ccccc1)(c1ccccc1)c1ccccc1
93.6
O=C(NCCCCCC[P+](c1ccccc1)(c1ccccc1)c1ccccc1)c1ccc(O)c(O)c1
90.3
O=C(NCCCCCCCCCC[P+](c1ccccc1)(c1ccccc1)c1ccccc1)c1cc(O)c(O)c(O)c1
108
CS(=O)(=O)[O-].O=C(/C=C/c1ccc(O)c(O)c1)NCCCCCC[P+](c1ccccc1)(c1ccccc1)c1ccccc1
112

Exam item: What viability at 48 h, 50 µM value was documented for this compound, CS(=O)(=O)[O-].O=C(Cc1ccc(O)c(O)c1)NCCCCCC[P+](c1ccccc1)(c1ccccc1)c1ccccc1 ?
Marked response: 100

Exam item: Another compound to look at: CS(=O)(=O)[O-].O=C(Cc1cc(O)c(O)c(O)c1)NCCCCCC[P+](c1ccccc1)(c1ccccc1)c1ccccc1
Marked response: 87.7

Exam item: And for CS(=O)(=O)[O-].O=C(/C=C/c1cc(O)c(O)c(O)c1)NCCCCCCCCCC[P+](c1ccccc1)(c1ccccc1)c1ccccc1 ?
Marked response: 108
